src = patent US6376497B1

test system: Aspergillus furnigatus B. 19119; assay: In vitro antifungal activity, microbroth dilution MIC; assay type: cell-based; conditions: A furnigatus B. 19119, RPMI-1640, 35° C., 4 to 48 hours
Kindly state Minimal inhibitory concentration (MIC) for each of the entries shown.
Write your answer as a measured quantity: the number, then the unit.

FC(=Cc1ccc2c(c1)OCO2)OCC1COC(Cn2ccnc2)(c2ccc(Cl)cc2Cl)O1 (stereo not drawn)	1.56 µg/mL
FC(OCC1COC(Cn2ccnc2)(c2ccc(F)cc2F)O1)=C(c1ccc(C(F)(F)F)cc1)C(F)(F)F (mixture of isomers)	50.0 µg/mL
FC(=Cc1cccc(F)c1)OCC1COC(Cn2ccnc2)(c2ccc(F)cc2F)O1 (mixture of isomers)	1.56 µg/mL
Cc1cccc(C=C(F)OCC2COC(Cn3ccnc3)(c3ccc(Cl)cc3Cl)O2)c1 (stereo not drawn)	3.13 µg/mL
FC(OCC1COC(Cn2ccnc2)(c2ccc(Cl)cc2Cl)O1)=C(c1ccc(F)cc1)C(F)(F)F (mixture of isomers)	100 µg/mL

State recorded Minimal inhibitory concentration (MIC) for all listed compounds.
1. COc1cccc(C(=C(F)OCC2COC(Cn3ccnc3)(c3ccc(F)cc3F)O2)C(F)(F)F)c1 (mixture of isomers)
2. FC(=Cc1cccc(Cl)c1)OCC1COC(Cn2ccnc2)(c2ccc(Cl)cc2Cl)O1 (stereo not drawn)
3. Cc1ccc(C=C(F)OCC2COC(Cn3ccnc3)(c3ccc(F)cc3F)O2)cc1C (mixture of isomers)
4. FC(OCC1COC(Cn2ccnc2)(c2ccc(F)cc2F)O1)=C(c1ccc(F)cc1)C(F)(F)F (mixture of isomers)

stdout:
12.5 µg/mL
1.56 µg/mL
12.5 µg/mL
6.25 µg/mL

----------
test system: Candida tropicalis A. 13803; assay: In vitro antifungal activity, microbroth dilution MIC; format: cell-based; conditions: RPMI-1640, 35° C., 4 to 48 hours, no growth observed
MEASUREMENT NAME: Minimal inhibitory concentration(MIC), C. tropicalis A. 13803

CCOc1ccc(C(=C(F)OCC2COC(Cn3cncn3)(c3ccc(Cl)cc3Cl)O2)C(F)(F)F)cc1 (mixture of isomers) [Ex. 85]	>100 µg/mL
CCCCc1ccc(C(=C(F)N2CCN(c3ccc(OCC4COC(Cn5ccnc5)(c5ccc(F)cc5F)O4)cc3)CC2)C(F)(F)F)cc1 (mixture of isomers) [Ex. 140]	>100 µg/mL

State recorded Minimal inhibitory concentration(MIC), C. tropicalis A. 13803 for all listed compounds.
1. FC(Oc1ccc(OCC2COC(Cn3ccnc3)(c3ccc(F)cc3F)O2)cc1)=C(c1cccc(Cl)c1)C(F)(F)F (mixture of isomers) [Ex. 114]
2. FC(Oc1ccc(OCC2COC(Cn3ccnc3)(c3ccc(F)cc3F)O2)cc1)=C(c1cccc(C(F)(F)F)c1)C(F)(F)F (mixture of isomers) [Ex. 111]
3. Cc1ccc(C=C(F)OCC2COC(Cn3cncn3)(c3ccc(Cl)cc3Cl)O2)cc1 (mixture of isomers) [Ex. 71]

stdout:
1: >100 µg/mL; 2: >100 µg/mL; 3: 100 µg/mL

State recorded Minimal inhibitory concentration(MIC), C. tropicalis A. 13803 for all listed compounds.
1. COc1ccc(C=C(F)Oc2ccc(OCC3COC(Cn4ccnc4)(c4ccc(F)cc4F)O3)cc2)cc1 (mixture of isomers) [Ex. 105]
2. FC(OCC1COC(Cn2cncn2)(c2ccc(Cl)cc2Cl)O1)=C(c1ccccc1)C(F)(F)F (mixture of isomers) [Ex. 79]

stdout:
[">100 µg/mL", ">100 µg/mL"]

stdin: Specify reported Minimal inhibitory concentration(MIC), C. tropicalis A. 13803 for the compound shown: COc1ccc(C(=C(F)Oc2ccc(OCC3COC(Cn4cncn4)(c4ccc(Cl)cc4Cl)O3)cc2)C(F)(F)F)cc1 (mixture of isomers) [Ex. 121]
stdout: >100 µg/mL

----------
system: Cryptococcus neoformans B. 42419; assay: In vitro antifungal activity, microbroth dilution MIC; assay type: cell-based; settings: RPMI-1640, 35° C., 4 to 48 hours, no growth observed
MEASUREMENT NAME: Minimal inhibitory concentration(MIC), Cry. neoformans B. 42419 (µg/mL)
Give bare numbers, in µg/mL.

FC(=C(c1ccc(C(F)(F)F)cc1)C(F)(F)F)N1CCN(c2ccc(OCC3COC(Cn4ccnc4)(c4ccc(F)cc4F)O3)cc2)CC1 (mixture of isomers) [Ex. 142]	3.13
FC(Oc1ccc(OCC2COC(Cn3ccnc3)(c3ccc(Cl)cc3Cl)O2)cc1)=C(c1ccc(C(F)(F)F)cc1)C(F)(F)F (mixture of isomers) [Ex. 97]	3.13
FC(=C(c1ccc(C(F)(F)F)cc1)C(F)(F)F)N1CCN(c2ccc(OCC3COC(Cn4ccnc4)(c4ccc(Cl)cc4Cl)O3)cc2)CC1 (mixture of isomers) [Ex. 130]	0.78
FC(=C(c1ccccc1)C(F)(F)F)N1CCN(c2ccc(OCC3COC(Cn4ccnc4)(c4ccc(Cl)cc4Cl)O3)cc2)CC1 (mixture of isomers) [Ex. 124]	1.56
CC(C)(C)c1ccc(C(=C(F)N2CCN(c3ccc(OCC4COC(Cn5ccnc5)(c5ccc(Cl)cc5Cl)O4)cc3)CC2)C(F)(F)F)cc1 (mixture of isomers) [Ex. 128]	0.78
COc1ccc(C(=C(F)OCC2COC(Cn3cncn3)(c3ccc(Cl)cc3Cl)O2)C(F)(F)F)cc1 (mixture of isomers) [Ex. 84]	1.56

State recorded Minimal inhibitory concentration(MIC), Cry. neoformans B. 42419 for all listed compounds.
1. FC(Oc1ccc(OCC2COC(Cn3ccnc3)(c3ccc(F)cc3F)O2)cc1)=C(c1cccc(Cl)c1)C(F)(F)F (mixture of isomers) [Ex. 114]
2. COc1ccc(C=C(F)OCC2COC(Cn3cncn3)(c3ccc(Cl)cc3Cl)O2)cc1 (mixture of isomers) [Ex. 74]
3. FC(=Cc1ccc(F)cc1)OCC1COC(Cn2cncn2)(c2ccc(Cl)cc2Cl)O1 (mixture of isomers) [Ex. 77]
4. Cc1ccc(C=C(F)Oc2ccc(OCC3COC(Cn4ccnc4)(c4ccc(Cl)cc4Cl)O3)cc2)cc1 (mixture of isomers) [Ex. 89]
5. FC(=C(c1ccc(F)cc1)C(F)(F)F)N1CCN(c2ccc(OCC3COC(Cn4ccnc4)(c4ccc(Cl)cc4Cl)O3)cc2)CC1 (mixture of isomers) [Ex. 135]

stdout:
1: 1.56; 2: 3.13; 3: 1.56; 4: 1.56; 5: 0.78

State recorded Minimal inhibitory concentration(MIC), Cry. neoformans B. 42419 for all listed compounds.
1. FC(Oc1ccc(OCC2COC(Cn3ccnc3)(c3ccc(Cl)cc3Cl)O2)cc1)=C(c1cccc(Cl)c1)C(F)(F)F (mixture of isomers) [Ex. 101]
2. FC(Oc1ccc(OCC2COC(Cn3ccnc3)(c3ccc(F)cc3F)O2)cc1)=C(c1ccccc1)C(F)(F)F (mixture of isomers) [Ex. 106]
3. Cc1ccc(C(=C(F)N2CCN(c3ccc(OCC4COC(Cn5ccnc5)(c5ccc(Cl)cc5Cl)O4)cc3)CC2)C(F)(F)F)cc1 (mixture of isomers) [Ex. 126]
4. Cc1cccc(C(=C(F)Oc2ccc(OCC3COC(Cn4ccnc4)(c4ccc(F)cc4F)O3)cc2)C(F)(F)F)c1 (mixture of isomers) [Ex. 107]

stdout:
1. 3.13
2. 1.56
3. 0.78
4. 3.13

State recorded Minimal inhibitory concentration(MIC), Cry. neoformans B. 42419 for all listed compounds.
1. FC(=C(c1ccc(F)cc1)C(F)(F)F)N1CCN(c2ccc(OCC3COC(Cn4ccnc4)(c4ccc(F)cc4F)O3)cc2)CC1 (mixture of isomers) [Ex. 148]
2. FC(=C(c1ccc2c(c1)OCO2)C(F)(F)F)N1CCN(c2ccc(OCC3COC(Cn4ccnc4)(c4ccc(F)cc4F)O3)cc2)CC1 (mixture of isomers) [Ex. 145]
3. FC(Oc1ccc(OCC2COC(Cn3ccnc3)(c3ccc(Cl)cc3Cl)O2)cc1)=C(c1ccc2c(c1)OCO2)C(F)(F)F (mixture of isomers) [Ex. 99]

stdout:
0.78
0.78
3.13

stdin: Specify reported Minimal inhibitory concentration(MIC), Cry. neoformans B. 42419 for the compound shown: Cc1ccc(C(=C(F)N2CCN(c3ccc(OCC4COC(Cn5ccnc5)(c5ccc(Cl)cc5Cl)O4)cc3)CC2)C(F)(F)F)cc1C (mixture of isomers) [Ex. 129]
stdout: 0.78

----------
test system: Cryptococcus neoformans IFM. 40092; test: In vitro antifungal activity, microbroth dilution MIC; assay type: cell-based; conditions: Cry. neoformans IFM. 40092, RPMI-1640, 35° C., 4 to 48 hours
MEASUREMENT NAME: Minimal inhibitory concentration (MIC) (µg/mL)
Numbers only, in µg/mL.

Examples from the recorded data:
COc1cccc(C(=C(F)OCC2COC(Cn3ccnc3)(c3ccc(F)cc3F)O2)C(F)(F)F)c1 (mixture of isomers)	0.20
Cc1cc(C=C(F)OCC2COC(Cn3ccnc3)(c3ccc(Cl)cc3Cl)O2)ccc1Cl (stereo not shown)	0.20

State recorded Minimal inhibitory concentration (MIC) for all listed molecules.
1. COc1ccc(C(=C(F)OCC2COC(Cn3ccnc3)(c3ccc(Cl)cc3Cl)O2)C(F)(F)F)cc1 (stereo not shown)
2. FC(=Cc1ccccc1)OCC1COC(Cn2cncn2)(c2ccc(Cl)cc2Cl)O1 (mixture of isomers)
3. COc1ccc(C=C(F)OCC2COC(Cn3ccnc3)(c3ccc(Cl)cc3Cl)O2)cc1 (stereo not shown)
4. FC(OCC1COC(Cn2ccnc2)(c2ccc(F)cc2F)O1)=C(c1ccc2c(c1)OCO2)C(F)(F)F (mixture of isomers)
5. COc1cccc(C(=C(F)OCC2COC(Cn3ccnc3)(c3ccc(Cl)cc3Cl)O2)C(F)(F)F)c1 (stereo not shown)

stdout:
1. 0.78
2. 0.39
3. 0.78
4. 0.20
5. 0.39

State recorded Minimal inhibitory concentration (MIC) for all listed molecules.
1. CCc1ccc(C=C(F)OCC2COC(Cn3ccnc3)(c3ccc(Cl)cc3Cl)O2)cc1 (stereo not shown)
2. Cc1cccc(C=C(F)OCC2COC(Cn3cncn3)(c3ccc(Cl)cc3Cl)O2)c1 (mixture of isomers)
3. COc1cccc(C=C(F)OCC2COC(Cn3ccnc3)(c3ccc(Cl)cc3Cl)O2)c1 (stereo not shown)
4. Cc1cccc(C=C(F)OCC2COC(Cn3ccnc3)(c3ccc(Cl)cc3Cl)O2)c1 (stereo not shown)
5. Cc1cc(C)cc(C=C(F)OCC2COC(Cn3ccnc3)(c3ccc(F)cc3F)O2)c1 (mixture of isomers)
6. FC(=Cc1ccc2c(c1)OCO2)OCC1COC(Cn2ccnc2)(c2ccc(Cl)cc2Cl)O1 (stereo not shown)

stdout:
1: 1.56; 2: 0.78; 3: 0.78; 4: 1.56; 5: 0.78; 6: 0.39

State recorded Minimal inhibitory concentration (MIC) for all listed molecules.
1. Cc1cc(C)cc(C=C(F)OCC2COC(Cn3ccnc3)(c3ccc(Cl)cc3Cl)O2)c1 (stereo not shown)
2. FC(OCC1COC(Cn2ccnc2)(c2ccc(Cl)cc2Cl)O1)=C(c1ccc(Cl)cc1)C(F)(F)F (stereo not shown)

stdout:
1: 1.56; 2: 0.78

State recorded Minimal inhibitory concentration (MIC) for all listed molecules.
1. Cc1ccc(C(=C(F)OCC2COC(Cn3ccnc3)(c3ccc(F)cc3F)O2)C(F)(F)F)cc1C (mixture of isomers)
2. Cc1cccc(C(=C(F)OCC2COC(Cn3ccnc3)(c3ccc(Cl)cc3Cl)O2)C(F)(F)F)c1 (stereo not shown)
3. FC(OCC1COC(Cn2ccnc2)(c2ccc(F)cc2F)O1)=C(c1cccc(Cl)c1)C(F)(F)F (mixture of isomers)
4. FC(OCC1COC(Cn2ccnc2)(c2ccc(Cl)cc2Cl)O1)=C(c1ccc(Oc2ccccc2)cc1)C(F)(F)F (stereo not shown)

stdout:
1: 0.20; 2: 0.39; 3: 0.20; 4: 0.20
